Assay: Antihyperglycemic activity in mouse 3T3L1 cells assessed as stimulation of glucose consumption at 2 uM after 36 hrs by glucose oxidase assay in presence of high glucose condition relative to control
Type: functional, 3T3-L1
quantity kind: fold change (FC)
Format: numeric value only, no unit, no commentary.

The following compounds have reported results that may help.
COc1ccc(/C=C/C(=O)NCCc2ccc(O[C@@H]3O[C@@H](C)[C@H](OC(C)=O)[C@@H](O[C@@H]4O[C@H](CO)[C@@H](O)[C@H](O)[C@H]4O)[C@H]3O[C@@H]3O[C@H](COC(C)=O)[C@@H](O)[C@H](O)[C@H]3O)cc2)cc1	1.6
COc1ccc(/C=C/C(=O)NCCc2ccc(O[C@@H]3O[C@@H](C)[C@H](OC(C)=O)[C@@H](O[C@@H]4O[C@H](COC(C)=O)[C@@H](O)[C@H](O)[C@H]4O)[C@H]3O[C@@H]3O[C@H](COC(C)=O)[C@@H](O)[C@H](O)[C@H]3O)cc2)cc1	1.6
COc1ccc(/C=C\C(=O)NCCc2ccc(O[C@@H]3O[C@@H](C)[C@H](OC(C)=O)[C@@H](O[C@@H]4O[C@H](COC(C)=O)[C@@H](O)[C@H](O)[C@H]4O)[C@H]3O[C@@H]3O[C@H](COC(C)=O)[C@@H](O)[C@H](O)[C@H]3O)cc2)cc1	1.6

Sample COc1ccc(/C=C/C(=O)NCCc2ccc(O[C@@H]3O[C@@H](C)[C@H](OC(C)=O)[C@@H](O[C@@H]4O[C@H](CO)[C@@H](O)[C@H](O)[C@H]4O)[C@H]3O[C@@H]3O[C@H](CO)[C@@H](O)[C@H](O)[C@H]3O)cc2)cc1 ; fold change (FC) observed: 2.1

====

Test: Cytotoxicity against mouse 3T3L1 cells assessed as cell viability up to 30 uM by MTT assay
Assay type: cell-based
Conditions: 3t3-l1
quantity kind: Activity

COc1ccc(/C=C\C(=O)NCCc2ccc(O[C@@H]3O[C@@H](C)[C@H](OC(C)=O)[C@@H](O[C@@H]4O[C@H](COC(C)=O)[C@@H](O)[C@H](O)[C@H]4O)[C@H]3O[C@@H]3O[C@H](COC(C)=O)[C@@H](O)[C@H](O)[C@H]3O)cc2)cc1	Non-toxic
COc1ccc(/C=C/C(=O)NCCc2ccc(O[C@@H]3O[C@@H](C)[C@H](OC(C)=O)[C@@H](O[C@@H]4O[C@H](CO)[C@@H](O)[C@H](O)[C@H]4O)[C@H]3O[C@@H]3O[C@H](COC(C)=O)[C@@H](O)[C@H](O)[C@H]3O)cc2)cc1	Non-toxic
COc1ccc(/C=C/C(=O)NCCc2ccc(O[C@@H]3O[C@@H](C)[C@H](OC(C)=O)[C@@H](O[C@@H]4O[C@H](COC(C)=O)[C@@H](O)[C@H](O)[C@H]4O)[C@H]3O[C@@H]3O[C@H](COC(C)=O)[C@@H](O)[C@H](O)[C@H]3O)cc2)cc1	Non-toxic
COc1ccc(/C=C/C(=O)NCCc2ccc(O[C@@H]3O[C@@H](C)[C@H](OC(C)=O)[C@@H](O[C@@H]4O[C@H](CO)[C@@H](O)[C@H](O)[C@H]4O)[C@H]3O[C@@H]3O[C@H](CO)[C@@H](O)[C@H](O)[C@H]3O)cc2)cc1	Non-toxic
COc1ccc(/C=C\C(=O)NCCc2ccc(O[C@@H]3O[C@@H](C)[C@H](O)[C@@H](O[C@@H]4O[C@H](CO)[C@@H](O)[C@H](O)[C@H]4O)[C@H]3O[C@@H]3O[C@H](CO)[C@@H](O)[C@H](O)[C@H]3O)cc2)cc1	Non-toxic
COc1ccc(/C=C\C(=O)NCCc2ccc(O[C@@H]3O[C@@H](C)[C@H](OC(C)=O)[C@@H](O[C@@H]4O[C@H](CO)[C@@H](O)[C@H](O)[C@H]4O)[C@H]3O[C@@H]3O[C@H](CO)[C@@H](O)[C@H](O)[C@H]3O)cc2)cc1	Non-toxic
COc1ccc(/C=C\C(=O)NCCc2ccc(O[C@@H]3O[C@@H](C)[C@H](OC(C)=O)[C@@H](O[C@@H]4O[C@H](CO)[C@@H](O)[C@H](O)[C@H]4O)[C@H]3O[C@@H]3O[C@H](COC(C)=O)[C@@H](O)[C@H](O)[C@H]3O)cc2)cc1	Non-toxic

Sample COc1ccc(/C=C/C(=O)NCCc2ccc(O[C@@H]3O[C@@H](C)[C@H](O)[C@@H](O[C@@H]4O[C@H](CO)[C@@H](O)[C@H](O)[C@H]4O)[C@H]3O[C@@H]3O[C@H](CO)[C@@H](O)[C@H](O)[C@H]3O)cc2)cc1 ; Activity observed: Non-toxic

====

Listed here are molecules together with their documented fold change (FC).
Assay: Antihyperglycemic activity in mouse 3T3L1 cells assessed as stimulation of glucose consumption at 2 uM after 36 hrs by glucose oxidase assay in presence of high glucose condition relative to control
Format: functional, 3T3-L1
Format: numeric value only, no unit, no commentary.

The following molecules have reported results that may help.
COc1ccc(/C=C/C(=O)NCCc2ccc(O[C@@H]3O[C@@H](C)[C@H](O)[C@@H](O[C@@H]4O[C@H](CO)[C@@H](O)[C@H](O)[C@H]4O)[C@H]3O[C@@H]3O[C@H](CO)[C@@H](O)[C@H](O)[C@H]3O)cc2)cc1	2.5
COc1ccc(/C=C\C(=O)NCCc2ccc(O[C@@H]3O[C@@H](C)[C@H](O)[C@@H](O[C@@H]4O[C@H](CO)[C@@H](O)[C@H](O)[C@H]4O)[C@H]3O[C@@H]3O[C@H](CO)[C@@H](O)[C@H](O)[C@H]3O)cc2)cc1	1.6
COc1ccc(/C=C\C(=O)NCCc2ccc(O[C@@H]3O[C@@H](C)[C@H](OC(C)=O)[C@@H](O[C@@H]4O[C@H](CO)[C@@H](O)[C@H](O)[C@H]4O)[C@H]3O[C@@H]3O[C@H](CO)[C@@H](O)[C@H](O)[C@H]3O)cc2)cc1	2.3

Turning now to a further record.
Sample COc1ccc(/C=C\C(=O)NCCc2ccc(O[C@@H]3O[C@@H](C)[C@H](OC(C)=O)[C@@H](O[C@@H]4O[C@H](CO)[C@@H](O)[C@H](O)[C@H]4O)[C@H]3O[C@@H]3O[C@H](COC(C)=O)[C@@H](O)[C@H](O)[C@H]3O)cc2)cc1 ; fold change (FC) observed: 1.6

This collection of values is drawn from ChEMBL document CHEMBL3108773.
